Provenance of the data: ChEMBL document CHEMBL2074542

target: Solute carrier family 15 member 2 (Homo sapiens, UniProt Q16348); assay: TP_TRANSPORTER: inhibition of Cephalexin uptake in SKPT cells; assay type: functional, cell-based
Sequence (Q16348 whole entry): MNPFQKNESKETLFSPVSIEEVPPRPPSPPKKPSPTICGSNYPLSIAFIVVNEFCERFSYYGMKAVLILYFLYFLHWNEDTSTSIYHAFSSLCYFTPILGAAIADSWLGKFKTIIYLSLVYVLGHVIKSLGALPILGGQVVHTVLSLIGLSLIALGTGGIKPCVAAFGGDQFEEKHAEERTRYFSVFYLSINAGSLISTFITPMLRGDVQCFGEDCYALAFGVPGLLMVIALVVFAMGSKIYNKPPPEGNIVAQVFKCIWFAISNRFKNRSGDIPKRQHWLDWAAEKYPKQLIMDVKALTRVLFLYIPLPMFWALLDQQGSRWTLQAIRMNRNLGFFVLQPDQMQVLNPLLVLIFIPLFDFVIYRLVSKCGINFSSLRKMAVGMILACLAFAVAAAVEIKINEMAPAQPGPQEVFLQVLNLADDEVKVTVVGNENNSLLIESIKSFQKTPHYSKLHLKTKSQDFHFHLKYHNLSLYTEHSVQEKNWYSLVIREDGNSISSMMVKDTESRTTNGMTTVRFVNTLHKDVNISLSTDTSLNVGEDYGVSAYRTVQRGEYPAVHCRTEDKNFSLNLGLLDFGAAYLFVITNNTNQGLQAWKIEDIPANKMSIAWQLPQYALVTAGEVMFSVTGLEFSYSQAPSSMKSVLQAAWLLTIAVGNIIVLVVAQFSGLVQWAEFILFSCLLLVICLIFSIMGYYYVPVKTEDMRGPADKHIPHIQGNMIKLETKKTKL
pKi: −log10 of the molar value. Peptide text beside a SMILES is read from it.
measured-attribute: pKi

1. CN(CC(=O)O)C(=O)CN [GLYCYLSARCOSINE] (HELM PEPTIDE1{G.[Sar]}$$$$V2.0) ... 4.19

====

Target: Solute carrier family 15 member 1 (Homo sapiens)
Sequence (P46059 whole entry): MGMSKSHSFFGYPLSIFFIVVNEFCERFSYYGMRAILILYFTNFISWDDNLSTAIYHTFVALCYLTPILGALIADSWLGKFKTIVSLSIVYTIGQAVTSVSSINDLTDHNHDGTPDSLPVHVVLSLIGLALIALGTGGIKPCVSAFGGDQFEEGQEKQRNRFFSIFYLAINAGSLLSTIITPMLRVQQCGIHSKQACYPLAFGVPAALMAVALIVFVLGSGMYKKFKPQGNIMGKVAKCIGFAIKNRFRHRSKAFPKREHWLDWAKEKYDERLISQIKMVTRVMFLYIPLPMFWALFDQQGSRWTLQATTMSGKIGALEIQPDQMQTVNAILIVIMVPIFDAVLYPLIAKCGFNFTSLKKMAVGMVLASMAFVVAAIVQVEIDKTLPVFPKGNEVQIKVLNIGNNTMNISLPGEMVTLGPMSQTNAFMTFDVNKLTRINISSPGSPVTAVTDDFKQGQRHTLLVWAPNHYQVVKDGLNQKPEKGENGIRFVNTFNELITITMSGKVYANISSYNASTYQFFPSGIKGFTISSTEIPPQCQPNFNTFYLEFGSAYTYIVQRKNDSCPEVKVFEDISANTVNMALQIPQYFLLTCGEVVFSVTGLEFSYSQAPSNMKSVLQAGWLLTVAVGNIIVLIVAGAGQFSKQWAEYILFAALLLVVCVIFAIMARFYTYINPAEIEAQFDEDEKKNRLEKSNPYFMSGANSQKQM
Test: TP_TRANSPORTER: inhibition of Gly-Sar uptake (Gly-Sar: 5 uM) in Caco-2 cells
Type: functional, cell-based
Reported IC50 values for a set of compounds
measured-attribute: IC50

1. CC1(C)S[C@@H]2[C@H](NC(=O)C3(N)CCCCC3)C(=O)N2[C@H]1C(=O)O ... 600 µM
2. CC1=C(C(=O)O)N2C(=O)[C@@H](NC(=O)[C@H](N)c3ccc(O)cc3)[C@H]2SC1 ... 5400 µM
